Tested on: EKVX NSCLC
Assay: NCI-60 one-dose screen, 48 h
Conditions: 10 µM
This is part of a sample that, as a whole, favours compounds with a hit. Of some 83,000 tested, about 20% had one in any assay. Calls of active or inactive are those of the source. The calls were made as follows: active = growth percent below 10; inactive = the rest.
Valid outcomes are listed here; reply with one: yes (active), no (inactive)

>  <MOLECULE>
O=[N+]([O-])c1cccc(N=Cc2ccc3c(c2)OCO3)c1

>  <CATEGORY>
no

$$$$

Exam item: Assay outcome for CC1(C)OC2=C(CC1Br)C(=O)C(=O)c1ccccc12 (stereo unspecified) : what was it?
Marked response: yes

Exam item: Entry O=C(Nc1nc2ccc(F)cc2s1)c1cc(-c2ccc(F)cc2)n2nc(-c3ccccc3)cc2n1 please
Marked response: no

Exam item: // same read-out, input: COc1cc(/C=C2\Oc3cc(OCC(=O)c4ccccc4)ccc3C2=O)cc(OC)c1OC
Marked response: no

Exam item: Entry to check: CC[C@H]1CCC/C=C/[C@@H]2C[C@H](O)C[C@H]2[C@H](O)/C=C/C(=O)O1
Marked response: yes

Exam item: // repeat for CCCCCCCCCCCCC1C/C=C\CCCC(=O)O1 (stereo unspecified) and report
Marked response: no

Exam item: Next: Cc1cc(N(CCCNc2ccnc3cc(Cl)ccc23)Cc2ccc3c(c2)OCO3)nc(N2CCCCC2)n1
Marked response: yes

Exam item: Next molecule up: Nc1nc(N)c2c(ccc3nccc32)[nH]1
Marked response: no

* * *

System: CCRF-CEM leukemia
Assay: NCI-60 one-dose screen, 48 h
Conditions: 10 µM
The panel holds about 83,000 compounds, 20% with a hit somewhere; the sample as a whole holds those more often. Active and inactive are the calls of the source. How the source made its calls: active means growth percent below 10; inactive means the rest.
Please state which outcome applies, choosing from y (active), n (inactive)

>  <COMPOUND>
CC(C)(C)NC/C(=C\c1ccccc1)C(=O)c1ccccc1

>  <CATEGORY>
n

$$$$
>  <COMPOUND>
O=[N+]([O-])c1ccc(Oc2cccnc2)c([N+](=O)[O-])c1

>  <CATEGORY>
n

$$$$
>  <COMPOUND>
COc1cc(-c2cc(/C=C/C(=O)c3ccc(F)c(F)c3)[nH]n2)cc(OC)c1OC

>  <CATEGORY>
n

$$$$
>  <COMPOUND>
C=C(NC(=O)C(=C)NC(=O)c1csc(C2=NC3c4csc(n4)C4NC(=O)c5csc(n5)C(C(C)(O)C(C)O)NC(=O)C5CSC(=N5)/C(=C/C)NC(=O)C(C(C)O)NC(=O)c5csc(n5)C3(CC2)NC(=O)C(C)NC(=O)C(=C)NC(=O)C(=C)NC(=O)C(C(C)C)NC2C=Cc3c(C(C)O)cc(nc3C2O)C(=O)OC4C)n1)C(N)=O (stereo not drawn)

>  <CATEGORY>
y

$$$$

Exam item: What outcome does the record of this test show for CCCCC/C=C/C(=O)CCc1ccc(O)c(OC)c1 ?
Marked response: n

Exam item: Another compound to check: O=c1[nH]c2ccc(Cl)cc2c2ccccc12
Marked response: n

Exam item: // repeat for CCCCCCCCCCCC[n+]1ccc(C(N)=O)cc1 and report
Marked response: n

Exam item: Next: CCOC(=O)N1C/C(=C/c2ccc(OC)cc2)C(=O)/C(=C/c2ccc(OC)cc2)C1
Marked response: y

* * *

Tested on: KM12 colon
Experiment: NCI-60 one-dose screen, 48 h (100 = growth as untreated, 0 = no growth, -100 = all killed)
Details: 10 µM
About 83,000 compounds went through this panel and 20% of them were active in at least one assay; those are over-represented in the sample as a whole.
hey, just use True if measured growth is less than 40%, otherwise False

Completed entries (count: 4):
>  <MOLECULE>
C[C@]12CC[C@@H]3c4ccc(O)cc4C[C@@H](O)[C@H]3[C@@H]1CC[C@@H]2O

>  <MEASURED_TARGET>
KM12 colon

>  <CATEGORY>
False

$$$$
>  <MOLECULE>
CC(C)=CCc1cc(O)cc2c1OC(C=C(C)C)C1=C2C(=O)C2=C(NCCS2(=O)=O)C1=O (stereo not given)

>  <MEASURED_TARGET>
KM12 colon

>  <CATEGORY>
False

$$$$
>  <MOLECULE>
CCCCCCCCCCCCCCCCCC(=O)OCCCCCCC

>  <MEASURED_TARGET>
KM12 colon

>  <CATEGORY>
False

$$$$
>  <MOLECULE>
CN1CC[C@@H](c2c(O)cc(O)c3c(=O)cc(-c4ccccc4Cl)oc23)[C@@H](O)C1

>  <MEASURED_TARGET>
KM12 colon

>  <CATEGORY>
True

$$$$

Shift focus to the following entry.
Exam item: Hi there! Is growth for CC(C)C[C@H](NC(=O)[C@H](Cc1cccc2ccccc12)NS(=O)(=O)c1cccc2cccnc12)B(O)O below 40%, do you know?
Marked response: True

* * *

Tested on: MDA-MB-231 breast
Test: NCI-60 one-dose screen, 48 h (100 = growth as untreated, 0 = no growth, -100 = all killed)
Conditions: 10 µM
The panel holds about 83,000 compounds, 20% with a hit somewhere; the sample as a whole holds those more often.
MEASURED_QUANTITY: growth (%)
# value in %; strip the unit string

>  <COMPOUND>
CCOC(=O)N/N=C\C(C)=N\NC(=O)OCC

>  <MEASURED_QUANTITY>
growth

>  <QUANTITATIVE_RESULT>
111

$$$$
>  <COMPOUND>
O=C(O)CC(Cl)C(Cl)CC(=O)O (stereo unspecified)

>  <MEASURED_QUANTITY>
growth

>  <QUANTITATIVE_RESULT>
117

$$$$
>  <COMPOUND>
CC/C(=N\N=C(/CC)c1ccc(Br)cc1)c1ccc(Br)cc1

>  <MEASURED_QUANTITY>
growth

>  <QUANTITATIVE_RESULT>
103

$$$$

Exam item: // lookup growth for COc1cc(-c2cc(/C=C/C(=O)c3ccc(F)c(F)c3)[nH]n2)cc(OC)c1OC
Marked response: 49.7

Exam item: Now the compound Cc1ccc(NC(=O)Nc2cccnc2)cc1NC(=O)Nc1cccnc1
Marked response: 92.8

Exam item: Can you check N#CC1=C(Nc2ccccc2Cl)SC(c2ccccc2O)NC1=O (stereo unspecified) next?
Marked response: 113

* * *

Tested on: K-562 leukemia
Experiment: NCI-60 one-dose screen, 48 h
Details: 10 µM
Compounds without any hit were thinned out: in the full panel of roughly 83,000, 20% have a hit. Calls of active or inactive are those of the source. The calls were made as follows: active = growth percent below 10; inactive = the rest.
Pick one and only one: class 1 for active, class 0 for inactive

Below, 5 compounds whose answers are already recorded.
>  <COMPOUND>
N#Cc1ncc(Br)c(NC2CCCCCC2)n1

>  <CATEGORY>
class 0

$$$$
>  <COMPOUND>
O=C1/C(=C\c2ccc(F)cc2)CN(C(=O)c2ccccc2F)C/C1=C\c1ccc(F)cc1

>  <CATEGORY>
class 1

$$$$
>  <COMPOUND>
CCN(CC)CCC(=O)Nc1cccc2c1C(=O)c1c(c(O)c3ccccc3c1O)C2=O

>  <CATEGORY>
class 0

$$$$
>  <COMPOUND>
CCOC(=O)C(NC(=O)C(Cl)Cl)C(O)c1ccccc1 (stereo unspecified)

>  <CATEGORY>
class 0

$$$$
>  <COMPOUND>
CCC(=O)N1C/C(=C/c2ccc(OC)cc2)C(=O)/C(=C/c2ccc(OC)cc2)C1

>  <CATEGORY>
class 1

$$$$

Exam item: What call does the record list for CCC1(C(C)C)NC(=O)NC1=O (stereo unspecified) ?
Marked response: class 0

Exam item: // repeat for CC(C)(Cl)CCC1=C(Cl)C(=O)c2ccccc2C1=O and report
Marked response: class 1

Exam item: How about this compound: COc1cc(/C=N/NC(=O)c2ccccc2Nc2cccc(C(F)(F)F)c2)cc(OC)c1OC
Marked response: class 0

Exam item: Proceed to O=[N+]([O-])c1cccc(-c2ncc(-c3ccc(Cl)cc3Cl)[nH]2)c1
Marked response: class 1

Exam item: Next record, please: COc1ccc(/C=C2/CN(C(=O)c3ccc(C)cc3)C/C(=C\c3ccc(OC)cc3)C2=O)cc1
Marked response: class 0

Exam item: CC[C@H](C)C(=O)O[C@H]1CCC=C2C=C[C@H](C)C(CCC3C[C@@H](O)CC(=O)O3)[C@H]21 (stereo partly specified) ?
Marked response: class 0

Exam item: Next compound: c1ccc2c(c1)oc1c3c(ccc12)NCCC3
Marked response: class 0

Exam item: Continue with Cn1c([N+](=O)[O-])cnc1/C=C1\Oc2cc(Cl)ccc2C1=O
Marked response: class 0

Exam item: COc1ccc(-c2cc(/C=C3\C(=O)Nc4ccc(Cl)cc43)[nH]n2)cc1OC , same question.
Marked response: class 0

Exam item: Try CCCCN(CCCC)c1cc(C(=O)CCCCCN)c2ccccc2n1 next.
Marked response: class 1

Exam item: Same question, Clc1ccccc1N=Cc1ccc2c(c1)OCO2 this time
Marked response: class 0

Exam item: Thanks! And C#Cc1ccc(-n2c(/C=C/c3ccc4ccccc4n3)nc3ncccc3c2=O)cc1 ?
Marked response: class 1

Exam item: Same question for CCCCCCCNc1nc(C=O)ncc1-c1ccc(C(F)(F)F)cc1 please.
Marked response: class 0

Exam item: And for Cc1cccc2c1O/C(=C\c1ccc([N+](=O)[O-])o1)C2=O ?
Marked response: class 1

Exam item: Continue with CC(C)(C#N)Nc1ccccc1
Marked response: class 0

Exam item: Now this one: NC(=O)c1ccc(-c2cccc3c(=O)nc(N4CCOCC4)oc23)cc1
Marked response: class 0

Ref: PubChem BioAssay (NCI)
